# SYSTEM: PIM3 (Homo sapiens)
# ASSAY_EXPLANATION: KinaseGlo Pim3 ATP depletion assay
# Assay type: biochemical
# Method: KinaseGlo Pim3 ATP Depletion Assay The activity of PIM3 is measured using a luciferase-luciferin based ATP detection reagent to quantify ATP depletion resulting from kinase-catalyzed phosphoryl transfer to a peptide substrate. Compounds to be tested are dissolved in 100% DMSO and directly distributed into white 384-well plates at 0.5 μl per well. […] The stopped reaction is incubated for 10 minutes and the remaining ATP detected via luminescence on the Victor2 (Perkin Elmer).
REPORTED_PROPERTY: pIC50
Kindly note that pIC50 refers to -log10 of the concentration in mol/L and answer with the value alone.

Example molecules with recorded pIC50:
MOLECULE | pIC50
CC1(C)O[C@H](c2ccncc2NC(=O)c2csc(-c3c(F)cccc3F)n2)C[C@@H](O)[C@H]1O [Example 90] | 7.51
O=C(Nc1cnccc1C1=C[C@@H](O)[C@H](O)[C@@H](CO)O1)c1ccc(F)c(-c2c(F)cccc2F)n1 [Example 79] | 8.52
C[C@H]1O[C@@H](c2ccncc2NC(=O)c2ccc(F)c(-c3c(F)cccc3F)n2)C[C@@H](O)[C@@H]1O [Example 119] | 8.70
C[C@H]1[C@H](C)O[C@H](c2ccncc2NC(=O)c2csc(-c3c(F)cccc3F)n2)C[C@@H]1O (stereo in doubt) [Example 94] | 8.05

## Input Please report the measured pIC50 for O=C(Nc1cnccc1[C@]1(C(F)(F)F)C[C@H](O)C=CO1)c1ccc(F)c(-c2c(F)cccc2F)n1 [Example 49] tested on PIM3 (Homo sapiens).
## Output 7.14

## Input Please report the measured pIC50 for C[C@@H]1O[C@H](c2ccncc2NC(=O)c2ccc(F)c(-c3c(F)cccc3F)n2)C[C@H](O)[C@]1(O)CO [Example 19] tested on PIM3 (Homo sapiens).
## Output 8.40

## Input Please report the measured pIC50 for C[C@H]1O[C@@H](c2ccncc2NC(=O)c2ccc(F)c(-c3c(F)cccc3F)n2)C[C@H](O)[C@@H]1O [Example 108] tested on PIM3 (Homo sapiens).
## Output 8.30

## Input Please report the measured pIC50 for Nc1ncc(-c2ccccc2)nc1C(=O)Nc1cnccc1[C@H]1C[C@@H](O)[C@@]2(O)CCC[C@H]2O1 [Example 195] tested on PIM3 (Homo sapiens).
## Output 8.49

## Input Please report the measured pIC50 for CC[C@]1(O)[C@H](C)O[C@H](c2ccncc2NC(=O)c2ccc(F)c(-c3c(F)cccc3F)n2)C[C@@H]1O (stereo in doubt) [Example 76] tested on PIM3 (Homo sapiens).
## Output 9.00

## Input Please report the measured pIC50 for C=C1[C@@H](O)C[C@@H](c2ccncc2NC(=O)c2ccc(F)c(-c3c(F)cccc3F)n2)OC12CC2 [Example 7] tested on PIM3 (Homo sapiens).
## Output 7.77

====

# SYSTEM: PIM2 (Homo sapiens)
# Sequence (Q9P1W9 whole entry): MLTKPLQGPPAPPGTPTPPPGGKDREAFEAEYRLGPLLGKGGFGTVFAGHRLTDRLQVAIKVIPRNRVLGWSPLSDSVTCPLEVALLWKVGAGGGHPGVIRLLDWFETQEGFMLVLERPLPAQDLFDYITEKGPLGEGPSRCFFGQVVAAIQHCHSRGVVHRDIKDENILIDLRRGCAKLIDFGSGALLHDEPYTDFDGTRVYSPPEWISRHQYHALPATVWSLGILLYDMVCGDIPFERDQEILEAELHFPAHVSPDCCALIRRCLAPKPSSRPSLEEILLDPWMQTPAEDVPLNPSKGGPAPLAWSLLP
# ASSAY_EXPLANATION: KinaseGlo Pim2 ATP depletion assay
# Assay type: biochemical
REPORTED_PROPERTY: pIC50
Kindly note that pIC50 refers to -log10 of the concentration in mol/L and answer with the value alone.

Example compounds with recorded pIC50:
COMPOUND | pIC50
C[C@@H]1O[C@H](c2ccncc2NC(=O)c2csc(-c3c(F)cccc3F)n2)C[C@H](N)[C@H]1O | 6.85
COC[C@H]1O[C@@H](c2ccncc2NC(=O)c2ccc(F)c(-c3c(F)cccc3F)n2)C[C@@H](O)[C@@H]1O | 6.95

## Input Provide measured pIC50 value, entry: CC1(C)O[C@@H](c2ccncc2NC(=O)c2ccc(F)c(-c3c(F)cccc3F)n2)C[C@H](O)[C@@H]1O
## Output 8.22

## Input Provide measured pIC50 value, entry: C[C@H]1O[C@@H](c2ccncc2NC(=O)c2csc(-c3c(F)cccc3F)n2)C[C@@H](O)[C@@H]1O (stereo in doubt)
## Output 6.44
